Test system: S. epidermidis ATCC 12228
EXPERIMENTAL READOUT: MIC (µM)
Provide the reading as a plain figure in µM.

These solved cases illustrate the format of a correct answer.
CCOC(=O)C1=C(c2ccccc2)N=c2sc(=Cc3ccc(-c4cccc(C(=O)O)c4)o3)c(=O)n2C1c1ccc(F)cc1 (stereo not shown) = 6.25
O=C(O)c1cccc(-c2ccc(C=c3sc4n(c3=O)C(c3ccc(F)cc3)C=C(c3ccccc3)N=4)o2)c1 (stereo not shown) = 3.13
O=C(O)c1cccc(-c2ccc(C=c3sc4n(c3=O)C(c3ccc(Cl)cc3)C=C(c3ccccc3)N=4)o2)c1 (stereo not shown) = 1.56

Turning to the following molecule.
Query block: Quick one: MIC for CCOC(=O)C1=C(c2ccccc2)N=c2sc(=Cc3ccc(-c4cccc(C(=O)O)c4)o3)c(=O)n2C1c1ccc(Cl)cc1 (stereo not shown) ?
Result block: 1.56
